Give GI50 for every item shown.
# Tested on: NCI-H522
# test: NCI tumour cell line growth inhibition, 48 h
The source made the active and inactive calls. Cut-off read from the data, not from the text of the source: active = GI50 up to about 1.1 µM and inactive = higher.

Inquiry: Given c1ccc(C2=Nc3nc4ccccc4n3C(c3ccccc3)C2)cc1 (configuration not stated) , state its recorded GI50.
Reply text: > 100 µM (inactive)

Inquiry: Given Nc1c2ccccc2nc2ccc3c(=O)cc(-c4ccccc4)oc3c12 , state its recorded GI50.
Reply text: 1.25 µM (inactive)

Inquiry: Given Cc1nc2ccc(Cl)cc2c2c1CCN2c1ccc(F)cc1 , state its recorded GI50.
Reply text: 44.2 µM (inactive)

Inquiry: Given Cc1ccc2c(c1C)C(=O)C1(Cc3cc4c(cc3C1=O)CCC4)C2 (configuration not stated) , state its recorded GI50.
Reply text: > 100 µM (inactive)

Inquiry: Given Cc1nc(=O)[nH]c2[nH][nH]c(=O)c12 , state its recorded GI50.
Reply text: > 100 µM (inactive)

Inquiry: Given COC(=O)[C@]1(CCC(C)=O)C(=O)C=CN([C@H](C)c2ccccc2)[C@@H]1Cc1ccc(OC)c(OCc2ccccc2)c1I , state its recorded GI50.
Reply text: 20 µM (inactive)

Inquiry: Given O=C1/C(=C/c2cccc(Cl)c2)CCCc2ccccc21 , state its recorded GI50.
Reply text: 14.5 µM (inactive)

* * *

Give GI50 for every item shown.
# Test system: HCC 2998
# test: NCI tumour cell line growth inhibition, 48 h
The source made the active and inactive calls. No stated cut-off is given here; in the data, active = GI50 up to about 1.1 µM and inactive = higher.

Inquiry: Given Cc1cn(CCCCCCOC(=O)NC(CCCNC(N)=O)C(=O)O)c(=O)[nH]c1=O (configuration not stated) , state its recorded GI50.
Reply text: > 100 µM (inactive)

Inquiry: Given O=c1c(Br)c(-c2ccccc2)[s+]([O-])c2ccccc12 (configuration not stated) , state its recorded GI50.
Reply text: 14.6 µM (inactive)

Inquiry: Given [N-]=[N+]=NC(c1cn(C2CC(O)C(CO)O2)c(=O)[nH]c1=O)C(Cl)I (configuration not stated) , state its recorded GI50.
Reply text: > 100 µM (inactive)

Inquiry: Given CSC(SC)=C(C#N)C(=O)Nc1cccc(Cl)c1 , state its recorded GI50.
Reply text: 75.5 µM (inactive)

Inquiry: Given COC(=O)C1SC(N(C)c2ccccc2)=NC12c1ccccc1Nc1ccccc12 (configuration not stated) , state its recorded GI50.
Reply text: 20.5 µM (inactive)

Inquiry: Given c1ccc(C2=NCCN2)c(C2=NCCN2)c1 , state its recorded GI50.
Reply text: 57.3 µM (inactive)

Inquiry: Given Cc1c2ccncc2c(C)c2c1[nH]c1ccc(O)c(OCC(F)(F)F)c12 , state its recorded GI50.
Reply text: 9.42 µM (inactive)

* * *

Give GI50 for every item shown.
# Test system: HOP-62
# test: NCI tumour cell line growth inhibition, 48 h
Calls of active or inactive are those of the source. Rule as the data show it: active = GI50 up to about 1.1 µM and inactive = higher.

Inquiry: Return GI50 measured with HOP-62 given this compound: C=CCOC(=O)Cn1cc(C)c(=O)[nH]c1=O
Reply text: > 100 µM (inactive)

Inquiry: Return GI50 measured with HOP-62 given this compound: CCOC(=O)CCN1C(=O)c2ccc(NC(=O)C(=O)O)cc2S1(=O)=O
Reply text: > 100 µM (inactive)

Inquiry: Return GI50 measured with HOP-62 given this compound: CC1=C2CCCC2=C/C(=N/Nc2ccc([N+](=O)[O-])cc2[N+](=O)[O-])CC1
Reply text: > 100 µM (inactive)

Inquiry: Return GI50 measured with HOP-62 given this compound: Cc1c2ccncc2c(C)c2c1[nH]c1ccc(O)c(OCC(F)(F)F)c12
Reply text: 10.8 µM (inactive)

Inquiry: Return GI50 measured with HOP-62 given this compound: NC1CCC(N(CC(=O)O)CC(=O)O)C(N(CC(=O)O)CC(=O)O)C1 (configuration not stated)
Reply text: > 100 µM (inactive)

Inquiry: Return GI50 measured with HOP-62 given this compound: NNC(=O)c1nn[nH]c1C(=O)NN
Reply text: > 100 µM (inactive)

Inquiry: Return GI50 measured with HOP-62 given this compound: COc1ccc2c(-c3ccc(OCCN(C)C)cc3)c(Oc3ccccc3)c(=O)oc2c1
Reply text: 13 µM (inactive)

Inquiry: Return GI50 measured with HOP-62 given this compound: CC1=NN(c2cccc(Cl)c2)C2(C1=C/C=C/c1ccccc1)C(Cl)C(=O)N2c1nc2ccccc2s1 (configuration not stated)
Reply text: 27.9 µM (inactive)

Inquiry: Return GI50 measured with HOP-62 given this compound: CC(=O)Oc1c(OC(C)=O)c(-c2ccc(O)c(O)c2)c(O)c(O)c1-c1ccc(O)cc1
Reply text: > 100 µM (inactive)

Inquiry: Return GI50 measured with HOP-62 given this compound: CCOC(=O)/C(=C/c1ccc(OC)cc1)N(CC)CC
Reply text: > 100 µM (inactive)

Inquiry: Return GI50 measured with HOP-62 given this compound: CC(C)(CN1CCCCC1)C(=O)/C=C/c1ccccc1
Reply text: 24.7 µM (inactive)

Inquiry: Return GI50 measured with HOP-62 given this compound: c1ccc(C2=Nc3nc4ccccc4n3C(c3ccccc3)C2)cc1 (configuration not stated)
Reply text: 36 µM (inactive)

* * *

# System: HCC 2998
# test: NCI tumour cell line growth inhibition, 48 h
Active and inactive are the calls of the source. Rule as the data show it: active = GI50 up to about 1.1 µM and inactive = higher.
Hello, when you answer, please use one of the following outcomes: active, inactive

Inquiry: Just curious, what result did O=C(C/C(CCC(=O)N(Cc1ccccc1)Cc1ccccc1)=N/Nc1ccc([N+](=O)[O-])cc1[N+](=O)[O-])c1ccccc1 get here?
Reply text: inactive

Inquiry: Just curious, what result did O=C1NC(O)c2cc3ccccc3cc2O1 (stereo not given) get here?
Reply text: inactive

Inquiry: Just curious, what result did CN(C)CCNc1ccc2nnn3c4ccc(O)cc4c(=O)c1c23 get here?
Reply text: inactive

Inquiry: Just curious, what result did CCCCCC(=O)N[C@@H](c1ccco1)[C@@H](O)C(=O)O[C@H]1C[C@@]2(O)[C@@H](OC(=O)c3ccccc3)[C@@H]3[C@]4(OC(C)=O)CO[C@@H]4C[C@H](O)[C@@]3(C)C(=O)[C@H](OC(C)=O)C(=C1C)C2(C)C get here?
Reply text: active

Inquiry: Just curious, what result did O=C(C#Cc1ccccc1)N1CCCCC1 get here?
Reply text: inactive

* * *

# Tested on: SF-268
# test: NCI tumour cell line growth inhibition, 48 h
Calls of active or inactive are those of the source. No stated cut-off is given here; in the data, active = GI50 up to about 1.1 µM and inactive = higher.
Hello, when you answer, please use one of the following outcomes: y (active), n (inactive)

Inquiry: Just curious, what result did O=C(O)c1nc2ccc(C(F)(F)F)cc2nc1Nc1ccc(F)cc1 get here?
Reply text: n

Inquiry: Just curious, what result did Cc1nc(=O)[nH]c2[nH][nH]c(=O)c12 get here?
Reply text: n

Inquiry: Just curious, what result did N#Cc1nc(C2CC2)oc1N get here?
Reply text: n

Inquiry: Just curious, what result did Cc1ccc([N+](=O)[O-])cc1S(=O)(=O)Nc1ccc(C2=NN(S(=O)(=O)c3cc([N+](=O)[O-])ccc3C)C(c3ccccc3)C2)cc1 (configuration not stated) get here?
Reply text: n

Inquiry: Just curious, what result did COc1cc2c(c(OC)c1O)-c1ccc(OC)c(=O)cc1[C@@H](NC(=O)C(F)(F)F)CC2 get here?
Reply text: y

Inquiry: Just curious, what result did O=c1sc2c(s1)SSSSS2 get here?
Reply text: n

Inquiry: Just curious, what result did COc1ccc(CC(CO)NC(=O)OCc2ccccc2)cc1Oc1ccc(CC(CO)NC(=O)OCc2ccccc2)cc1 (configuration not stated) get here?
Reply text: n

Inquiry: Just curious, what result did CC(C)c1cccc(C(=O)NCCN(C)C)c1[N+](=O)[O-] get here?
Reply text: n

Inquiry: Just curious, what result did CC(=O)Oc1ccc(/C=C/C(=O)O[C@@H](C)[C@H](C)OC(=O)/C=C/c2ccc(OC(C)=O)c(OC(C)=O)c2)cc1OC(C)=O get here?
Reply text: n

Inquiry: Just curious, what result did O=C1C=CC(=O)c2c1ccc1c3ccccc3n(-c3cccc([N+](=O)[O-])c3)c21 get here?
Reply text: n

Inquiry: Just curious, what result did CCOc1ccc(NC(=O)C(=O)Nn2c(N)nnc2N)cc1 get here?
Reply text: n

Inquiry: Just curious, what result did CCCNC1=C2C[C@@H](C)C[C@@H](OC)[C@@H](OC(=O)CCCN)[C@H](C)/C=C(\C)[C@@H](OC(N)=O)[C@H](OC)/C=C\C=C(/C)C(=O)NC(=CC1=O)C2=O get here?
Reply text: n

Inquiry: Just curious, what result did CCCCCCCCSC(SCCCCCCCC)=C1C(=O)N(c2ccccc2)N=C1C get here?
Reply text: n

Inquiry: Just curious, what result did O=C(O)CCCCCCC[C@@H]1S[C@H]1CCCCCCO get here?
Reply text: n

Inquiry: Just curious, what result did [N-]=[N+]=NC1(c2ccccc2)C(=O)C(Cl)=C(c2ccccc2)N(c2ccccc2)C1=O (configuration not stated) get here?
Reply text: n

Inquiry: Just curious, what result did CCC1(CC)N=C(C(F)(F)F)c2cc(C(=O)C(F)(F)F)c3ccccc3c2N1 get here?
Reply text: n

Inquiry: Just curious, what result did Cc1ccn2c(=O)cc(CN3CCOCC3)nc2c1 get here?
Reply text: n

The measurements presented in this section are drawn from ChEMBL document CHEMBL1201862.
